Test: clinical
Conditions: human, plasma, 8.3 mg/kg, Mean AUC0-24h, steady state (Day 8), cohort 4, 8.3 mg/kg
MEASURED_QUANTITY: AUC(0-t) (ng·h/mL)
Please reply with the bare figure in ng·h/mL and do not write the unit itself.

Entry `C=CC(=O)N1CCC[C@@H](n2nc(-c3ccc(Oc4ccccc4)cc3)c3c(N)ncnc32)C1` : reported AUC(0-t) = ?
2330

----------
Test: clinical
Conditions: human, plasma, 8.3 mg/kg, Mean (CV) AUC0-∞, Day 1, cohort CD (continuous dosing), 8.3 mg/kg
MEASURED_QUANTITY: AUC(0-inf) (ng·h/mL)
The reply should contain only the number, in ng·h/mL.

Would you mind telling me what AUC(0-inf) value was observed for `C=CC(=O)N1CCC[C@@H](n2nc(-c3ccc(Oc4ccccc4)cc3)c3c(N)ncnc32)C1` ?
1030

----------
Assay: clinical
Settings: human, plasma, 5 mg/kg, Mean (CV) AUC0-∞, Day 1, cohort 3, 5 mg/kg
MEASURED_QUANTITY: AUC(0-inf) (ng·h/mL)
The reply should contain only the number, in ng·h/mL.

So what does the record say about AUC(0-inf) for `C=CC(=O)N1CCC[C@@H](n2nc(-c3ccc(Oc4ccccc4)cc3)c3c(N)ncnc32)C1` ?
419

----------
Assay: clinical
Details: human, plasma, 8.3 mg/kg, Mean (CV) Tmax, Day 1, cohort 4, 8.3 mg/kg
MEASURED_QUANTITY: Tmax (h)
Value expressed in h; do not type the unit.

What value of measured Tmax is listed for `C=CC(=O)N1CCC[C@@H](n2nc(-c3ccc(Oc4ccccc4)cc3)c3c(N)ncnc32)C1` ?
1.8

----------
Assay: clinical
Details: human, plasma, 560 mg, Mean (CV) AUC0-∞, Day 1, Fixed cohort, 560 mg fixed dose
MEASURED_QUANTITY: AUC(0-inf)
Answer with the value and then the unit.

Form field: reported AUC(0-inf) of `C=CC(=O)N1CCC[C@@H](n2nc(-c3ccc(Oc4ccccc4)cc3)c3c(N)ncnc32)C1`
749 ng·h/mL

----------
Experiment: clinical
Settings: human, plasma, […], Mean (CV) Tmax, Day 1, cohort 2, […]
MEASURED_QUANTITY: Tmax (h)
Form entry: value (h) — number only.

Fill blank: measured Tmax of the compound `C=CC(=O)N1CCC[C@@H](n2nc(-c3ccc(Oc4ccccc4)cc3)c3c(N)ncnc32)C1` is ____.
2.1

----------
Experiment: clinical
Conditions: human, plasma, 1.25 mg/kg, Mean (CV) AUC0-∞, Day 1, cohort 1, 1.25 mg/kg
MEASURED_QUANTITY: AUC(0-inf) (ng·h/mL)
I only need the number, in ng·h/mL, no unit after it.

GET /values?readout=AUC(0-inf)&item= `C=CC(=O)N1CCC[C@@H](n2nc(-c3ccc(Oc4ccccc4)cc3)c3c(N)ncnc32)C1`
181

----------
Experiment: clinical
Conditions: human, plasma, 12.5 mg/kg, Mean (CV) Tmax, Day 1, cohort 5, 12.5 mg/kg
MEASURED_QUANTITY: Tmax (h)
Kindly answer with a numeric value in h, unit omitted.

Requested read-out: Tmax. Entry: C=CC(=O)N1CCC[C@@H](n2nc(-c3ccc(Oc4ccccc4)cc3)c3c(N)ncnc32)C1 [PCI-32765]
1.7

----------
Test: clinical
Details: human, plasma, time to maximum plasma concentration (Tmax), range over dose levels
MEASURED_QUANTITY: Tmax

Fill in the blank: the reported Tmax of `C=CC(=O)N1CCC[C@@H](n2nc(-c3ccc(Oc4ccccc4)cc3)c3c(N)ncnc32)C1` is ____.
1 to 2.3 h
